Exercise: state measured GI50 for each of the compounds provided.
Tested on: ACHN
Test: NCI tumour cell line growth inhibition, 48 h
Active and inactive are the calls of the source. Cut-off read from the data, not from the text of the source: active = GI50 up to about 1.1 µM and inactive = higher.

These solved cases illustrate the format of a correct answer.
[[record]]
compound = "COC(=O)c1cc(C#N)[nH]c1-c1ccc(Br)s1"
quantity_kind = "GI50"
result = "13.7 µM (inactive)"

[[record]]
compound = "CCOC(=O)c1c(N)nn2c1cc1cccccc12"
quantity_kind = "GI50"
result = "27.9 µM (inactive)"

[[record]]
compound = "O=C1c2ccccc2-c2nnc3c(c21)-c1ccccc1C3"
quantity_kind = "GI50"
result = "27.5 µM (inactive)"

[[record]]
compound = "CO[C@H]1SC[C@H](OC(C)=O)[C@H](OC(C)=O)[C@H]1OC(C)=O"
quantity_kind = "GI50"
result = "> 100 µM (inactive)"

[[record]]
compound = "CCCCN1C(=O)N(c2ccc(OCC)cc2)C2N(CCCC)C1C(C)(C)C2(C)C (stereo unspecified)"
quantity_kind = "GI50"
result = "27.7 µM (inactive)"

[[record]]
compound = "COc1cc2c(cc1OC)CCc1cc(OC)c(OC)cc1CC2"
quantity_kind = "GI50"
result = "> 100 µM (inactive)"

[[record]]
compound = "O=C(N/C(=C\\c1ccc(/C=C(\\NC(=O)c2ccccc2)c2nc3ccccc3[nH]2)cc1)c1nc2ccccc2[nH]1)c1ccccc1"
quantity_kind = "GI50"
result = "> 100 µM (inactive)"

[[record]]
compound = "O=C(/C=C\\c1ccccc1O)c1ccc(O)cc1O"
quantity_kind = "GI50"
result = "> 100 µM (inactive)"

[[record]]
compound = "O=C1C(Cl)=C(NCCN2CCOCC2)C(=O)c2ncccc21"
quantity_kind = "GI50"
result = "2.82 µM (inactive)"

[[record]]
compound = "CC(=O)c1c(-c2ccc(Cl)cc2)c(C#N)c(=S)n(C2OC(CO)C(O)C(O)C2O)c1C (stereo unspecified)"
quantity_kind = "GI50"
result = "42.3 µM (inactive)"


Parameters: items (list). Returns: GI50 for each item.
1. O=C(Cc1ccccc1)N/N=C(/c1nc2ccc([N+](=O)[O-])cc2nc1O)C(O)c1ccc(C(O)/C(=N/NC(=O)Cc2ccccc2)c2nc3ccc([N+](=O)[O-])cc3nc2O)cc1 (stereo unspecified)
2. CC1(C)OC(=O)CC12CCN(Cc1ccccc1)CC2
3. COC(=O)C1C(C(=O)OC)C2(OC)c3ccccc3-c3ccccc3C12 (stereo unspecified)
4. N#CCc1ccc(C(C#N)/C(CCCC(=O)Nc2cccc([N+](=O)[O-])c2)=N\NC(=O)NN)cc1 (stereo unspecified)
5. CC1=NN(C(=O)CC(=O)Nc2ccc(C)cc2)C(=O)C1/N=N\c1ccc(S(=O)(=O)c2ccc(/N=N/C3C(=O)N(C(=O)CC(=O)Nc4ccc(C)cc4)N=C3C)cc2)cc1 (stereo unspecified)

Result:
1: 35.2 µM (inactive); 2: > 100 µM (inactive); 3: 37.9 µM (inactive); 4: > 100 µM (inactive); 5: 62.8 µM (inactive)

====

Tested on: BT-549
Test: NCI tumour cell line growth inhibition, 48 h
The source made the active and inactive calls. Cut-off read from the data, not from the text of the source: active = GI50 up to about 1.1 µM and inactive = higher.
Valid outcomes are listed here; reply with one: active, inactive

These recorded examples may help you get a feel for the data.
[[record]]
compound = "NC(=S)C1=C(N)Oc2c(c(=O)oc3ccccc23)C1c1ccc(Br)cc1 (centres undefined)"
qualitative_label = "inactive"

[[record]]
compound = "Cc1ccc(S(=O)(=O)NC(CCC(=O)NNc2ccccc2)C(=O)NNc2ccccc2)cc1 (centres undefined)"
qualitative_label = "inactive"

[[record]]
compound = "COc1cccc(CCNC(=O)Cc2ccccc2CCO)c1"
qualitative_label = "inactive"


Please turn your attention to the following entry.
Query: Could you kindly confirm the outcome this assay logged for CN(Cc1cccc2ccsc12)/N=C\c1ccc(Cl)cc1 ?
Result: inactive
